B1: library; a variant is named by its letters at N, in order (parent)
chain: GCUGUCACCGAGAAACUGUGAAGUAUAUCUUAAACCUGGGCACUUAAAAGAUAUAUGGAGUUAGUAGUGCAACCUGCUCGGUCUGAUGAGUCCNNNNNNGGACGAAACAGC

Variants of: B1
Experimental protocol: normalized RNA/DNA level with ligand (relative to sTRSVctl = 100) (log10 (% of sTRSVctl)); HEK293T; ligand: cyclic di-GMP (c-di-GMP-II aptamer); ligand concentration (+) RNA-Seq: 1 mM; higher = less ribozyme self-cleavage, higher mRNA level
Conditions: reporter: mCherry (pCS4076), ligand present: yes
normalized RNA/DNA level with ligand (log10): recorded values
// no unit string in output, number only

Answered cases to consult:
GGCGAA; 1.77
AUAGAU; 1.72
GUUGUU; 1.81
UUAAAU; 1.86

Reported normalized RNA/DNA level with ligand (log10) for "AACUGC" : what is it?
1.82

Returns the measured normalized RNA/DNA level with ligand (log10) for the input variant. Input: "ACCGGC"
1.92

Look up normalized RNA/DNA level with ligand (log10): "GAGCGA"
1.85

Quick one: normalized RNA/DNA level with ligand (log10) for "CAGUAA" ?
1.33

So what does the record say about normalized RNA/DNA level with ligand (log10) for "UAUGGG" ?
1.73

The values you see were collected from the supplement of paper PMC6757056.
